biological target: NleB1 (Escherichia coli, UniProt Q8XBX8); construct: GST-EHEC-NleB1 in pET42a (GST/His tagged), expressed in E. coli BL21 (DE3), nickel purified; some tag cleavage noted; details: 160 µM; inhibitor
Entries and their % NleB1 inhibition (µM compound) / 160

CC(C)CN1CCC(=O)N(CCC#N)CC1 [KUC102485N] = 20.8%
O=C(Cn1cc(COc2c(F)c(F)cc(F)c2F)nn1)c1ccc(O)cc1 [KUC104092N] = 80.6%
CCCC(=O)c1ccc(OCc2cn(CC(=O)c3ccc(O)cc3)nn2)cc1 [KUC104099N] = 77.5%
O=C(O)c1cc(-c2ccc(-c3c(-c4ccco4)noc3-c3ccccc3)cc2)nc2ccccc12 [KUC102644N] = 97.2%
O=S1(=O)CC(N2CCN(Cc3ccccc3F)CC2)CN1Cc1cn(Cc2cccc(Cl)c2)nn1 (centres unmarked) [KUC108236N] = 18.4%
O=C1CCN(S(=O)(=O)c2ccccc2)CCN1CCOCc1ccc(Cl)cc1 [KUC100988N] = 36.0%
O=C(c1ccc(F)cc1)N1CCCC2(CC(c3cccc(Cl)c3)=CO2)C1 (centres unmarked) [KUC111570N] = 42.6%

Now, please, on to the next compound.
Need % NleB1 inhibition (µM compound) / 160 of O=C(Oc1ccc([N+](=O)[O-])cc1)O[C@H]1CC[C@@]23CCCN2C(=O)CCC[C@H]3[C@H]1Cc1ccccc1 [KUC112275N] , thanks.
34.9%

* * *

Entries and their % NleB1 inhibition (µM compound) / 160
molecular target: NleB1 (Escherichia coli, UniProt Q8XBX8); construct: GST-EHEC-NleB1 in pET42a (GST/His tagged), expressed in E. coli BL21 (DE3), nickel purified; some tag cleavage noted; conditions: 160 µM; inhibitor
// return numeric value only (unit: %, not printed)

Record O=C1CS(=O)(=O)N(Cc2cccc(F)c2)c2ccc(Br)cc21 [KUC103319N] : what is its % NleB1 inhibition (µM compound) / 160 with NleB1 (Escherichia coli, UniProt Q8XBX8)?
81.7

Record C[C@H]1CC[C@]2(CCC(=O)N2CCCOC(=O)c2ccccc2)CC1 [KUC110967N] : what is its % NleB1 inhibition (µM compound) / 160 with NleB1 (Escherichia coli, UniProt Q8XBX8)?
78.5

Record COCOCCn1cc(CN2CCS(=O)(=O)N(Cc3ccc(-c4ccc(OC)nc4)cc3)C(C(C)C)C2=O)nn1 (centres unmarked) [KUC105133N] : what is its % NleB1 inhibition (µM compound) / 160 with NleB1 (Escherichia coli, UniProt Q8XBX8)?
75.8

Record O=c1cc(-c2ccccc2Cl)oc2c(NS(=O)(=O)c3cc(Cl)cc(Cl)c3O)ccc(O)c12 [KUC100066N] : what is its % NleB1 inhibition (µM compound) / 160 with NleB1 (Escherichia coli, UniProt Q8XBX8)?
96.8

Record C[C@@H]1NC(=O)O[C@H]1c1ccco1 [KUC103195N] : what is its % NleB1 inhibition (µM compound) / 160 with NleB1 (Escherichia coli, UniProt Q8XBX8)?
23.9

* * *

molecular target: NleB1 (Escherichia coli, UniProt Q8XBX8); construct: GST-EHEC-NleB1 in pET42a (GST/His tagged), expressed in E. coli BL21 (DE3), nickel purified; some tag cleavage noted; conditions: 80 µM; inhibitor
Metric: % NleB1 inhibition (µM compound) / 80
Answer shape: numeric part, then the unit.

Need % NleB1 inhibition (µM compound) / 80 of C[C@@H]1CCCN1c1ccc2c(c1)O[C@@H]1CCN(C1)S2(=O)=O [KUC111139N] , thanks.
38.7%

Need % NleB1 inhibition (µM compound) / 80 of COCOCCn1cc(CN2CCS(=O)(=O)N(Cc3ccc(-c4ccc(F)nc4)cc3)C(CC(C)C)C2=O)nn1 (centres unmarked) [KUC105149N] , thanks.
55.9%

Need % NleB1 inhibition (µM compound) / 80 of CN(C)CCN1CCN(C2CN(Cc3cn(Cc4ccc(F)cc4)nn3)S(=O)(=O)C2)CC1 (centres unmarked) [KUC108117N] , thanks.
21.8%

Need % NleB1 inhibition (µM compound) / 80 of CN1CCC(N2CCN(C3CN(Cc4cn(Cc5cccc(Cl)c5)nn4)S(=O)(=O)C3)CC2)CC1 (centres unmarked) [KUC108133N] , thanks.
18.0%

Need % NleB1 inhibition (µM compound) / 80 of O=C1CCN(S(=O)(=O)c2ccccc2)CCN1CCOCc1ccc(Cl)cc1 [KUC100988N] , thanks.
28.3%

Hello, the source for this data is paper PMC6305410, in case you need it.
